Reference source for all entries: patent US20260242735A1

# assay-system: human CD33 S342A (human, UniProt P20138 18-364)
# Sequence (P20138 18-364 S342A limits assumed): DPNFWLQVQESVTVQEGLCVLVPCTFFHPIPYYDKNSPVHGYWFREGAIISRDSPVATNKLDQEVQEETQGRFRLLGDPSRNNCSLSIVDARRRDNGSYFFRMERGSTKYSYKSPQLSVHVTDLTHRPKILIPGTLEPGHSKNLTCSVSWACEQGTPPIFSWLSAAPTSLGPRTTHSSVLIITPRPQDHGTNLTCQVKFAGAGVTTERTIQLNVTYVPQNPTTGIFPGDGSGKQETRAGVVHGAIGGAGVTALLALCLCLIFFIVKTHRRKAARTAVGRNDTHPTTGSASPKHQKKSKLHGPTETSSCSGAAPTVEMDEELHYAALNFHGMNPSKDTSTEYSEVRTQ
# protocol-text: flow cytometry, alanine scan
quantity-kind: Mean % WT Binding

input: Form field: reported Mean % WT Binding of Refmab #2 (antibody, V domains shown, The alanine scan used IgG or Fab) VH: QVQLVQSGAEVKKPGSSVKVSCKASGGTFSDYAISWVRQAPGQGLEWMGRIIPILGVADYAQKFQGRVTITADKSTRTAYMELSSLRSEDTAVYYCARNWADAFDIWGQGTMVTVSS VL: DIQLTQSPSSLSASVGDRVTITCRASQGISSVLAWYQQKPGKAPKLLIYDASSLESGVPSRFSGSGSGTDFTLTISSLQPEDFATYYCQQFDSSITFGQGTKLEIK
output: 117 % of WT

input: Form field: reported Mean % WT Binding of Refmab #3 (antibody, V domains shown, The alanine scan used IgG or Fab) VH: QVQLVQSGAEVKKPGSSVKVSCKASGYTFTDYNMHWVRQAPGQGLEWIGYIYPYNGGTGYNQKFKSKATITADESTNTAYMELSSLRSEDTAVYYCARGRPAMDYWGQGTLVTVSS VL: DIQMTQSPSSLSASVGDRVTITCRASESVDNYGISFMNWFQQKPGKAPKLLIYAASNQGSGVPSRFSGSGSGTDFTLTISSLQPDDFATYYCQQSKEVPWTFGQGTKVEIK
output: 121 % of WT

input: Form field: reported Mean % WT Binding of Refmab #1 (antibody, V domains shown, The alanine scan used IgG or Fab; also called hP67.6) VH: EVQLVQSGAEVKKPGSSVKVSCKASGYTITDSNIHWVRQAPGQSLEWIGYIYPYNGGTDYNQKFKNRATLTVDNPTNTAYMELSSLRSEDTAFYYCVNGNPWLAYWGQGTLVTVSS VL: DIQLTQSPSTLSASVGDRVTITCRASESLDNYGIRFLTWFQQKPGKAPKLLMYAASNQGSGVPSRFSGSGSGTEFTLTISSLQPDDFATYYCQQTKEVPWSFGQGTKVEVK
output: 79.5 % of WT

input: Form field: reported Mean % WT Binding of Refmab #4 (antibody, V domains shown, The alanine scan used IgG or Fab) VH: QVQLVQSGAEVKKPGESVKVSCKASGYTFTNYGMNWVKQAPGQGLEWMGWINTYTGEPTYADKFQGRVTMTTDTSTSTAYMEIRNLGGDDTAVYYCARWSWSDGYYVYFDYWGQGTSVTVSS VL: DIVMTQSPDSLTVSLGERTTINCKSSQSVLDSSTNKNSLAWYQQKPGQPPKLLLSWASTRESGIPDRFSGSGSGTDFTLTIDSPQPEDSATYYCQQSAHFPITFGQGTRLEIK
output: 105 % of WT
